molecular target: Recombinant human cathepsin A (Homo sapiens (Human), UniProt P10619); assay: Cathepsin A inhibitory activity (cleavage of Bodipy FL-labeled bradykinin, microfluidic capillary electrophoresis); format: biochemical; conditions: read-out: Activity (IC50, cathepsin A inhibitory activity)
Sequence (P10619 29-326): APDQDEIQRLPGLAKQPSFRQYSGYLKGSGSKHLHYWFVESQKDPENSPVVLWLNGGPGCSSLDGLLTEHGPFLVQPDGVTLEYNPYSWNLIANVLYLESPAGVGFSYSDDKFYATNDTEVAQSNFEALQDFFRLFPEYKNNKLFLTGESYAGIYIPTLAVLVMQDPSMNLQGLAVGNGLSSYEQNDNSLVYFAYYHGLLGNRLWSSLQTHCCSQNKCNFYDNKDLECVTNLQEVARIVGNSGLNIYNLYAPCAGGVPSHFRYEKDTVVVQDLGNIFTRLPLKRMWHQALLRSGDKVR
Sequence (P10619 327-480): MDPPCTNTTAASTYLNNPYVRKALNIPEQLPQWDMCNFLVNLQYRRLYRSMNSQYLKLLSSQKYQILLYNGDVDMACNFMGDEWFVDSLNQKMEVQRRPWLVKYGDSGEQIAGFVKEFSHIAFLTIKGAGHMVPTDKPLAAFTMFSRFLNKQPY
quantity kind: pIC50
Just so you know, pIC50 here is -log10 of the concentration in molar units; reply with that number alone.

chemical string: COc1ccc(C(=O)N[C@@H](CC(=O)O)c2ccccc2F)nc1-c1cc(F)cc(F)c1
pIC50: 5.41
//
chemical string: COc1cccc(C(=O)N[C@@H](CC(=O)O)c2ccccc2C)n1
pIC50: 5.32
//
chemical string: Cc1ccccc1[C@H](CC(=O)O)NC(=O)c1cncc(-c2ccccc2)c1
pIC50: 5.67
//
chemical string: COc1ccc(C(=O)N[C@@H](CC(=O)O)c2ccc(C)cc2)nc1-c1cccc(-c2nnc(C)o2)c1
pIC50: 5.06
//
chemical string: COc1ccc(C(=O)N[C@@H](CC(=O)O)c2ccccc2Cl)nc1-c1c(C)nn(C)c1C
pIC50: 5.31
//
chemical string: COc1ccc(C(=O)N[C@@H](CC(=O)O)c2ccc(C)cc2)nc1-c1ccncc1
pIC50: 5.02
//
chemical string: COc1ncc(C(=O)N[C@@H](CC(=O)O)c2ccccc2C)cc1-c1cccc(C)c1
pIC50: 5.31
//
chemical string: Cc1ccccc1[C@H](CC(=O)O)NC(=O)c1cccc(N2CCCCC2)n1
pIC50: 5.05
//
chemical string: COc1ccc(C(=O)N[C@@H](CC(=O)O)c2ccc(C)cc2)nc1-c1ccc(F)c(C)c1
pIC50: 5.49
//
chemical string: Cc1ccccc1[C@H](CC(=O)O)NC(=O)c1ccc(Oc2ccccc2)nc1
pIC50: 5.00

// field: pIC50; key: "COc1ccc(C(=O)N[C@@H](CC(=O)O)c2ccc(C)cc2)nc1-c1ccc(Cl)c(F)c1" ; value = 5.35

Memo: "COc1ccc(C(=O)N[C@@H](CC(=O)O)c2ccccc2Cl)nc1-c1ccc(F)c(F)c1" , reported pIC50: 5.71

* * *

biological target: Recombinant human cathepsin A (Homo sapiens (Human)); experiment: Cathepsin A inhibitory activity (cleavage of Bodipy FL-labeled bradykinin, microfluidic capillary electrophoresis); type: biochemical; conditions: read-out: Activity [μM] (IC50, cathepsin A inhibitory activity)
quantity kind: IC50 (µM)
Reply numerically in µM, unit not repeated.

chemical string: COc1ccc(C(=O)N[C@@H](CC(=O)O)c2ccc(C)cc2)nc1-c1cccc(C(C)=O)c1
study target: Recombinant human cathepsin A (Homo sapiens (Human))
quantity kind: IC50
unit of measure: µM
reported: 8.35

The molecule identified as "COc1ccc(C(=O)N[C@@H](CC(=O)O)c2ccccc2C)nc1-c1ccc(F)nc1" registered its IC50 at 1.6

Quick note, IC50 for "COc1cccc(-c2nc(C(=O)N[C@@H](CC(=O)O)c3ccccc3Cl)ccc2OC)c1" landed at 2.78

Please fill in: IC50 reported for "COc1ccc(C(=O)N[C@@H](CC(=O)O)c2ccccc2F)nc1-c1ccc(C#N)cc1F" = 3.58

Value of IC50 reported for the molecule "COc1ccc(-c2nc(C(=O)N[C@@H](CC(=O)O)c3ccc(C)cc3)ccc2OC)cc1" is 4.85

* * *

molecular target: Recombinant human cathepsin A (Homo sapiens (Human)); assay: Cathepsin A inhibitory activity (cleavage of Bodipy FL-labeled bradykinin, microfluidic capillary electrophoresis); format: biochemical; settings: read-out: Activity [μM] (IC50, cathepsin A inhibitory activity)
In plain terms, low IC50, meaning strictly below 3 µM, gives true (1), and everything else gives false (0).

Solved cases below.
compound: COc1ccc(C(C)(C)C)cc1-c1nc(C(=O)N[C@@H](CC(=O)O)c2ccccc2F)ccc1OC [compound 308]
study target: Recombinant human cathepsin A (Homo sapiens (Human))
cat: false (0)

compound: Cc1ccccc1[C@H](CC(=O)O)NC(=O)c1cccc(-c2cccc(C(F)(F)F)c2)n1 [compound 133]
study target: Recombinant human cathepsin A (Homo sapiens (Human))
cat: false (0)

compound: Cc1ccccc1[C@H](CC(=O)O)NC(=O)c1cccc(-c2ccc(F)cc2F)n1 [compound 149]
study target: Recombinant human cathepsin A (Homo sapiens (Human))
cat: false (0)

compound: COc1ccc(C(=O)N[C@@H](CC(=O)O)c2ccccc2C)nc1-c1cccc(F)c1Cl [compound 383]
study target: Recombinant human cathepsin A (Homo sapiens (Human))
cat: true (1)

compound: COc1ccc(C(=O)N[C@@H](CC(=O)O)c2ccccc2Cl)nc1-c1cccc(Cl)c1 [compound 340]
study target: Recombinant human cathepsin A (Homo sapiens (Human))
cat: true (1)

Req: Hi there! Is IC50 for COc1ccc(C(=O)N[C@@H](CC(=O)O)c2ccccc2F)nc1-c1cccc(C(C)(C)O)c1 [compound 327] below 3 µM, do you know?
Resp: false (0)

Req: Say whether its IC50 is strictly beneath 3 µM. Entry: Cc1ccccc1[C@H](CC(=O)O)NC(=O)c1cccc(-c2ccccc2C(F)(F)F)n1 [compound 139]
Resp: true (1)

Req: Here's an entry: COc1ccc(C(=O)N[C@@H](CC(=O)O)c2ccccc2C)nc1-c1cccc(C(C)(C)O)c1 [compound 385] . Is its IC50 below 3 µM?
Resp: true (1)
